Assay procedure: viability loss in PTEN-deleted colon tumor cells – cell-based, HCT116, CellTiter-Glo, primary screen (AID 827);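 note: PTEN knockout HCT116 line with beta catenin targeted HCT116 as companion control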
Condition notes: HCT116 PTEN-null viability, 60 h, at 10 µM
About 1,700 (1.2%) of roughly 140,000 compounds were called active.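 Rule for the calls: active = viability at or below a set limit, 4 SD under the median of all tested compounds (cut at about 3.7% in these data); inactive = the rest.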 The list comes from a sample in which actives are over-represented; it also holds close analogues and randomly drawn compounds.
Choose the fitting class; nothing outside active, inactive is accepted.

> print(dat)
                                   compound  assigned.label
1         Cc1cc(C)c2nc3nc(C)cc(C)c3c(N)c2c1          active
2  CCC(C)(NC(=O)c1ccccn1)C(=O)NC1CCCCC1 (stereo unspecified)        inactive
3  COc1ccc(-c2cc(C(=O)NC(Cc3c[nH]c4ccccc34)C(=O)O)c(C)o2)cc1OC (stereo unspecified)        inactive
4             CC(C)/C=N/NC(=O)c1cc(Br)ccc1O        inactive
5  CCCCC(C(=O)OCC(=O)c1ccc(OC)cc1)N1C(=O)c2ccccc2C1=O (stereo unspecified)        inactive

*Q* Which result was noted for this compound in the test: `Cc1cc(C)c2nc(SCCC#N)nc(C)c2c1`
*A* inactive
